All values here come from PubChem BioAssay AID248.

Tested on: L1210 leukemia ip in BDF1 mice, survival T/C
TEST NAME: NCI In Vivo Anticancer Drug Screen. Data for tumor model L1210 Leukemia (intraperitoneal) in B6D2F1 (BDF1) mice
CONDITIONS: endpoint: mean survival time; dose: 10.0 mg/kg/injection; schedule: Q01DX009 (ip); vehicle: saline; higher = longer survival
Inconclusive results and toxic doses are left out.
EXPERIMENTAL READOUT: T/C

>  <COMPOUND>
NC(N)=NCC(CCN1CCCCC1)c1cccc2ccccc12 (stereo not given)

>  <EXPERIMENTAL READOUT>
T/C

>  <MEAS VALUE>
100 % of control

$$$$
>  <COMPOUND>
C(=N\NC1=NCCN1)/c1ccccc1

>  <EXPERIMENTAL READOUT>
T/C

>  <MEAS VALUE>
93 % of control

$$$$

I am curious: what T/C value has been reported for NC(CCl)=NCC1C2CC3CC(C2)CC1C3 (stereo not given) ?
101 % of control

What do you get for `FC(F)(F)c1ccc(Cl)c(NC2=NCCCS2)c1` ?
107 % of control

And for OC(C1CO1)C(O)C1CO1 (stereo not given) ?
88 % of control
